- Tested on: K4 kissing-loop RNA reporter;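 note: bound reporter read as fluorescence of individual clusters on recovered sequencing chips by microscopy, with normalized cluster intensities fitted with a binding model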
- Assay Explanation: apparent KD of K4 kissing-loop reporter; higher = weaker reporter binding
- Particulars: Eterna round: R107; input ligand: tryptophan 2.4 mM
Record 1 whenever apparent KD of K4 kissing-loop reporter is at 200 nM or higher; record -1 when lower.

Request: Is the recorded value of apparent KD of K4 kissing-loop reporter equal to or greater than 200 nM for this sequence? ACGACGCAUAGUGAUACCAGCAUUAUAUGAGUGAUGUUCUACCUAAAAUGGUAAUAAUUAUGCCCUUGGCAGCACUAUGCGUCAG [KL-SSTheoB3]
Result: 1

Request: Evaluate CGCAGGAUGGAAGGAUAUGGGAGUUGACGUCGCCGAGCUAACCUUCUGCACGGAGUGAUGUUUAGACCAGAAGGUCCUCGGAGCA [theeternabot_exclusion_KL_FMN_B_17] : apparent KD of K4 kissing-loop reporter at minimum 200 nM?
Result: 1

Request: Please indicate if the recorded apparent KD of K4 kissing-loop reporter for GCAGUGAUGUUGCUGAUGUACAGUGGGAUACGAGGACCGGUACGGCCGCCACUCGUACAGAACUUGUUAAUACAUCGAUAGGUGA [XIII] meets or exceeds 200 nM.
Result: 1

Request: Assess whether reported apparent KD of K4 kissing-loop reporter for GUACGCUCUCGAGUGAUGUUCGGUAAUCGCGAGGAUAUCGCUUUUGCGAGAAGGCGCGGAAUGAGGAAACUCGUUCUGAGUGUAC [FMN A 23] sits at 200 nM or higher.
Result: 1

Request: Check this sequence for apparent KD of K4 kissing-loop reporter at or above 200 nM: GCUAUGGUAGGAAGGAGCGCUUACUCAUUAAUAAGAGUGAUGUUCGAUAAUGAGUAUUUAUAGCAGGUAGGUCGCCUACUAUAGC [Arginine B K4 3]
Result: 1

Request: Has GCGCGGCACAGUGAUGUUGUGCCUCGGAGACGAGGACCGGUACGGCCGCCACUCGUCCGCGCAGCUGAGGCAAAAGCCUCGGCAA [Omei KL Tryp A SS B v4] a recorded apparent KD of K4 kissing-loop reporter greater than or equal to 200 nM?
Result: -1

Request: Could you tell me if the measured apparent KD of K4 kissing-loop reporter of AAACAUUGGUGCGAUACCAGCUGAUCGGAAACGAUCAUGCUGGAGUGAUGUUCCAGGAAAAGCCCUUGGCAGCGCACCGAUGAAA [MAT - Same State Theophlline B - Mod of Eli - D29] reaches 200 nM or more?
Result: -1

Request: For this sequence, is measured apparent KD of K4 kissing-loop reporter 200 nM or higher? UGUAUGUGAUUUGAUACCAGACCAGCUGGUGGAAACUGAGUGAUGUUCAGUUAGGUUUGGGUCCCUUGGCAGCAAAUCGCAUACU [KL-SSTheoB28]
Result: -1

Request: Item AGCAAAACCAAAGGAUAUUGGCAGUCGAUGUACCAUGUUCCCGUAGCAGGUUGAGUGAUGUUUAAGCAAGAAGGUUGGCGUUUGG [theeternabot_exclusion_KL_FMN_B_12] with apparent KD of K4 kissing-loop reporter of 200 nM or above?
Result: 1

Request: Would you say ACACUAUCGUCAUAGACGGUAGUGAAAGCUGAGGAUAUGAGUGAUGUUAGAAGGUAGCAAGACUGUAUCGAAUAGAUACAGUCAA [FmnA 5 #K4BetweenAptamer #OpenEnded] shows apparent KD of K4 kissing-loop reporter at minimum 200 nM?
Result: -1

Request: Is the recorded value of apparent KD of K4 kissing-loop reporter equal to or greater than 200 nM for this sequence? GUGGCGGGCCAAGGAUAUAUUUUGGAGUGAUGUUGUUCAUUUAUUUGAGCUAGUGAUGUUGGUCGAAUAGAAGGUGGCCCGCCAC [whbob_Ex_FMNB__2th220]
Result: -1

Request: Say whether UGUGAUGUGUAGUGUUAUGUUUUGAGGGAUACCAGAGUGUUUUUAUUCCCUUGGCAGCUUGAGUGAUGUUUGAUGUUGUUGUUGU [knnumullin] shows apparent KD of K4 kissing-loop reporter of 200 nM or more.
Result: -1
